Source of measurements: PubChem BioAssay (NCI)

TEST_DESCRIPTION: NCI Yeast Anticancer Drug Screen. Data for the mec2-1 strain (AID 157)
CONDITION_DESCRIPTION: S. cerevisiae mec2-1 strain, at 11.0 µM
Compounds without any hit were thinned out: in the full panel of roughly 79,000, 15% have a hit. Activity calls are given as the source filed them. No stated cut-off is given here; in the data, active means growth inhibition above about 70%; inactive means the rest.
Labels: active, inactive

>>> print(df.to_string())
                                    compound  class_assignment
 0  S=C1N(c2ccc(Cl)cc2)C2=C(N=Nc3ccccc3)C(=Nc3ccccc3S2)N1c1ccccn1          inactive
 1  O=[N+]([O-])[O][Sn]([O][Sn]([O][N+](=O)[O-])([c]1ccccc1)[c]1ccccc1)([c]1ccccc1)[c]1ccccc1          inactive
 2        CCC(/C=C/c1ccccc1)=N\Nc1ccc(Cl)cc1          inactive
 3     COc1cc2oc3ccccc3c(=O)c2cc1CSc1ccccc1N          inactive
 4               O=S(=O)(NNc1ccccc1)c1ccccc1          inactive
 5                    CCCCCCCC/C=C\CCCCCCCCN          inactive
 6  Cc1ccc([N+](=O)[O-])c2c(NCCC[N+](C)(C)[O-])c3ccccc3nc12          inactive
 7  CC12CCC(CC(=O)/C1=C(/Br)I)C2(C)C (stereo unspecified)          inactive
 8  CCCCCc1c(CCCC)c(=O)[nH]c2cc(CNCC(OC)OC)ccc12          inactive
 9  CC1=NN(C(=O)CC(=O)NC(=O)/C=C\c2ccccc2)C(=O)C1N=Nc1ccc([N+](=O)[O-])cc1 (stereo unspecified)          inactive
10  O=S1(=O)CCC2=CC(C(F)(F)F)=CC(C(F)(F)F)=CN21            active
11  O=C1c2cccc3cccc(c23)C(=O)N1CCNCCN1C(=O)c2cccc3cccc(c23)C1=O          inactive
12  N#CCCC1C(C#N)C2(Cl)CC1(Cl)C(Cl)=C2Cl (stereo unspecified)          inactive
13  O=P(C(=S)Nc1c(Cl)cccc1Cl)(c1ccccc1)c1ccccc1          inactive
14                CCC(=O)Nc1ccc(N=NN(C)C)cc1          inactive
15  NC(=S)N1N=C2c3ccccc3CC[C@@H]2[C@@H]1c1ccccc1          inactive
16  O=C(Oc1ccc([N+](=O)[O-])cc1)c1ccc([N+](=O)[O-])cc1          inactive
17  CCCCN(CCCC)c1ccc(N=Nc2ccc(S(=O)(=O)O)cc2)cc1            active
18  COC(=O)C1CCCCC1C(=O)Nc1ccccc1 (stereo unspecified)          inactive
19               CC(C)OC(=O)NNc1cc(Cl)ccc1Cl          inactive
20  O=[N+]([O-])c1ccc(/C=C\c2ccc3c(c2)OCO3)c([N+](=O)[O-])c1          inactive
21  CC1CCN(CCC(=O)c2ccc([N+](=O)[O-])cc2)CC1          inactive
22         CC(C)S(=O)(=O)/C=C\S(=O)(=O)C(C)C          inactive
23       O=C1c2ccccc2-c2ccc(N=Cc3ccccc3)cc21          inactive
24  [N-]=[N+]=NC1(c2ccccc2)C(=O)Nc2ccccc2C1=O (stereo unspecified)          inactive
25  S=C1C(=Nc2ccccc2)N(c2ccccc2)/C(=N\c2ccccn2)N1c1ccccc1          inactive
26  COc1ccc2cc(C(C)C(=O)N3CCOC3=O)ccc2c1 (stereo unspecified)          inactive
27  N#CC1OB(O)c2ccccc21 (stereo unspecified)          inactive
28  CCC(OC(C)=O)C1CC(C(C)C)CCC1C (stereo unspecified)          inactive
29  O=S(=O)(c1cccc(C(F)(F)F)c1)N1c2ccccc2-n2cccc2C1c1cccnc1 (stereo unspecified)          inactive
30  CCCCS(=O)(=O)Nc1ccc(Nc2c3ccccc3nc3ccccc23)c(OC)c1          inactive
31            O=C(O)c1ccc2cc(Cl)c3ccccc3c2c1          inactive
32   CN(C)CCNC(=Cc1ccc2ccccc2[n+]1C)NCCN(C)C          inactive
33                CCOc1ccc2nc3ccccc3c(N)c2c1          inactive
34  CCC1(O)C(=O)OCc2c1cc1n(c2=O)Cc2cc3c(N)cccc3nc2-1 (stereo unspecified)          inactive
35       Cc1ccc(S(=O)(=O)Nc2cccc3cccnc23)cc1          inactive
36  CCCCCCCCCCCCCCCCCCN(C)C(COC)COP(=O)([O-])OCC[N+](C)(C)C (stereo unspecified)            active
37  Cn1c(-c2ccc(/C=N\N3CCN(/N=C/c4ccc(-c5c[n+]6ccsc6n5C)cc4)CC3)cc2)c[n+]2ccsc12          inactive
38  COc1ccc(/C=C2\SC(=S)N(/C=C3\C(=O)N(c4ccccc4)N=C3C)C2=O)cc1OC          inactive
39                          Nc1cc2ccccc2cc1N          inactive
40  c1cc(-c2sc(-c3ccncc3)c(-c3ccncc3)c2-c2ccncc2)ccn1          inactive
41                            O=Cc1ccccc1C=O          inactive
42                Nc1cc2c(cc1N)-c1ccccc1C2=O          inactive
43                                CNCC(C)CNC          inactive
44  CCCC/C=C1\CCC(CN2CCCC2)C1=O (stereo unspecified)          inactive
45  COC(=O)C1=C(C(=O)OC)CC(n2nnc(C(=O)OC)c2C(=O)OC)=CC1          inactive

----------
TEST_DESCRIPTION: NCI Yeast Anticancer Drug Screen. Data for the mgt1 strain (AID 153)
CONDITION_DESCRIPTION: S. cerevisiae mgt1 mutant growth inhibition; at 33.0 µM; active compounds read high
Protocol: Growth inhibition of yeast strains with defined genetic alterations is measured as a screen for potential anti-cancer activity. Selected strains with alterations in DNA damage repair or cell cycle control were exposed to compounds and growth inhibition was measured relative to vehicle treated controls. The strain used in this assay is mgt1
The panel holds about 79,000 compounds, 15% with a hit somewhere; the sample as a whole holds those more often.
Catalogue of growth inhibition readings, one per entry.
REPORTED_METRIC: growth inhibition (%)

>>> df
                                    compound  unit_of_measurement  test_result
 0  CNC(=O)OCc1c(COC(=O)NC)c(C)n(-c2ccc(Br)cc2)c1C                    %           14
 1          CCOC(=O)/C(=C\c1cccc(C)c1)C(C)=O                    %           91
 2       CSc1nc(-c2ccccc2)nc(=[N+]2CCOCC2)s1                    %           87
 3                           CCCCCCCCCCCNC=O                    %           72
 4     CCOP(=O)(OCC)/C(C#N)=C\c1cccc2ccccc12                    %           84
 5                COc1cc(C(=O)C=O)cc(OC)c1OC                    %           14
 6                 CC(C)OC(=O)NNc1cccc(Cl)c1                    %           98
 7  O=C1C(/C=C/c2ccc(Cl)cc2)=NNC2N1N=C1NC(=O)C3(NN12)c1ccccc1-c1ccccc13 (stereo not drawn)                    %          -13
 8  C[C@H](CCC1=NC(C)(C)CO1)C1CCC2[C@@H]3C(O)C[C@@H]4CC(O)CC[C@]4(C)C3CC[C@@]21C (stereo partly drawn)                    %           71
 9           CC1(C2CC2)C(C#N)(C#N)C1(C#N)C#N                    %           16
10  S=C1C(=Nc2ccccc2)N(c2ccccc2)/C(=N\c2ccccn2)N1c1ccccc1                    %           99
11  NC(=S)N/N=C1\c2ccccc2CCC1CCC1(O)CCc2ccccc2C1=O (stereo not drawn)                    %           82
12  C[n+]1c(/C=C/c2ccc(/C=N/NC(=O)c3ccc(C(=O)N/N=C/c4ccc(/C=C/c5cn6ccccc6[n+]5C)cc4)cc3)cc2)cn2ccccc21                    %           97
13                        Cc1ccnc2c(O)cccc12                    %           99
14               NNc1ccccc1-c1nc2ccccc2[nH]1                    %           -1
15             Cc1ccc(Nc2n[nH]c(=S)s2)c(C)c1                    %           58
16  CCN(CC)CCNc1ccc2nc(C)n3c4ccc(OC)cc4c(=O)c1c23                    %           26
17  Nc1ccc(S(=O)(=O)Nc2nc3c(c(=O)[nH]2)CCCC3)cc1                    %           98
18              COc1ccccc1NC(=O)c1ccc(Cl)cc1                    %           -2
19  O=C1C(=C2CCCC2)CCC1CN1CCCCC1 (stereo not drawn)                    %           54
20  O=C(O)/C=C\C(=O)Nc1ccc2c(c1)Cc1cc(Cl)ccc1-2                    %           -4
21  C=COC(=O)N[C@H]1CCc2cc(OC)c(OC)c(OC)c2-c2ccc(SC)c(=O)cc21                    %           13
22      CC(C)(C)c1ccc2c(c1)C(=O)c1ccccc1C2=O                    %           -7
